# Test system: HS 578T breast
# PROTOCOL_SUMMARY: NCI tumour cell line growth inhibition, 48 h
Assign TGI to each entry below.

Below, each entry is followed by its recorded TGI result.
O=P(Oc1ccccc1)(Oc1ccccc1)C(O)c1ccccc1 (stereo not given)
> 100 µM
COP(=N[Si](C)(C)C)(OC)OC
> 100 µM
Cc1cc(Cl)ccc1NC(=O)/C(Cc1nc2ccc(C(=O)c3ccccc3)cc2[nH]c1=O)=N/NC(=O)c1ccncc1
> 100 µM

# per-item lookup of TGI; items listed below
1. CCCCCCCCCCCCOCCCCCCCCC/C=C/c1ccc2c(c1)OCCOCCOCCOCCO2
2. CCOc1cc(NC(C)=O)ccc1C(=O)NN1C(=O)C(Cl)C1c1ccc(O)c(OC)c1 (stereo not given)
3. COc1ccc(/C=C/C(=O)c2cccc(C(=O)/C=C/c3ccc(OC)c(OC)c3)n2)cc1OC
4. CCCCn1c(C)c(C)c2c1NN=C(C#N)S2(=O)=O
5. COC(=O)C1=C(O)C(C(=O)OC)[C@]2(O)[C@H](C(=O)OC)[C@H]1C[C@@H](c1ccc(O)cc1)[C@H]2C(=O)OC (stereo not given in full)

["47.3 µM", "51.5 µM", "> 95.5 µM", "> 100 µM", "87.3 µM"]

// for each compound in input: emit TGI
1. CCN(CC)c1ccc2[nH]c3c(C(N)=O)cc(=O)c(=O)c=3oc2c1
2. COc1nc(N)nc2c1n(C)c[n+]2C

> 100 µM
> 100 µM

Provide reported TGI for each item, in the same order as listed.
1. O=C(Oc1cccc(Nc2ncnc3ccccc23)c1)c1ccccc1Cl
2. COc1ccc2c(CN3CCC(CO)CC3)cc3cc4c(cc3c2c1)OCO4
3. O=C(Nc1cccc(NS(=O)(=O)c2ccc(F)cc2)c1)c1ccc(-c2ccccc2)cc1
4. CC1(C)C2CC1C(/C=N\OCC(=O)O)=CC2=O (stereo not given)

1. 48.1 µM
2. 12.4 µM
3. 52.5 µM
4. > 100 µM

Go through the items and report each one's TGI.
1. CC[C@@]1(O)C(=O)OCc2c1cc1n(c2=O)Cc2c-1nc1ccccc1c2C=Nc1ccc(N[C@@H]2c3cc4c(cc3[C@@H](c3cc(OC)c(O)c(OC)c3)[C@H]3C(=O)OC[C@@H]32)OCO4)cc1
2. O=C1NC(=O)C2=C1CCC2O (stereo not given)
3. C=CCN1C(=O)/C(=C/c2ccccc2)N=C1SC/C=C/C
4. CC1=NN(c2cccc(Cl)c2)C(=N/c2nc3ccccc3s2)/C1=C\c1ccccc1O

> 100 µM
> 100 µM
> 100 µM
56.5 µM

Fill in TGI for each of the 2 compounds listed.
1. Cc1ccc(C)c(-n2c(-c3ccc(Br)cc3)csc2=NC(=O)c2ccccc2F)c1
2. COC(=O)C1=C(C(=O)OC)C2(c3ccccc3)c3ccccc3C(=O)C1N2C1CCCCC1 (stereo not given)

1: > 100 µM; 2: > 100 µM

----------
# Test system: SK-MEL-5 melanoma
# PROTOCOL_SUMMARY: NCI tumour cell line growth inhibition, 48 h
MEASUREMENT_NAME: TGI

CSC1=C(C)S/C(=C\c2ccc(/C=C3\SC(C)=C(SC)S3)cc2)S1
> 100 µM
CCOC(=O)C12C3CCC1C2C(=O)C3 (stereo unspecified)
> 100 µM
O=P(Oc1ccccc1)(Oc1ccccc1)C(O)c1ccccc1 (stereo unspecified)
> 100 µM

Required: TGI, one value per compound below.
1. N#CC12CCC(O)C(CC1)C2=O (stereo unspecified)
2. CC(C)C(=O)CC(Sc1ccc(N)cc1)c1ccccc1 (stereo unspecified)
3. COc1cc2c(cc1C)NC(=O)/C2=C\c1cccnc1

1: > 100 µM; 2: 68.2 µM; 3: 33.5 µM

----------
Please provide measured TGI for the entries that follow.
# Test system: UACC-257 melanoma
# PROTOCOL_SUMMARY: NCI tumour cell line growth inhibition, 48 h
One number for each entry, in µM.

Example cases with answers are listed next.
CC1=CC(=C(c2ccc(N)c(C)c2)c2ccc(N)c(C)c2)C=CC1=N
15.7
N#Cc1c(-c2cccc(Br)c2)cc(-c2ccc(Cl)cc2)nc1N
38.2
CN(C)CCCNC(=O)c1cc(NC(=O)c2cc(NC(=O)CCCN3c4ccccc4C=Cc4ccccc43)cn2C)cn1C
30.6

# input for lookup
Give recorded TGI. N#CCN(Cc1ccccc1)[C@H]1CCC[C@]1(O)/C=C/c1ccc2c(c1)OCO2 58

----------
# System: A549 NSCLC
# PROTOCOL_SUMMARY: NCI tumour cell line growth inhibition, 48 h; in the data active = GI50 below about 0.43 µM; inactive = the rest
Log the outcome using a class from label 1 (active), label 0 (inactive)

Reference set, count: 3
CCN(Cc1ccc(F)cc1F)c1ccc(CO)c(Cl)c1
label 0
C=C1C(=O)O[C@H]2[C@H]1CC/C(COC(=O)/C=C/c1cccnc1)=C\CC[C@@]1(C)O[C@@H]21
label 0
O=C(Nc1ncc([N+](=O)[O-])s1)c1cccc([N+](=O)[O-])c1
label 0

Consider the record given below.
So what was the verdict on N.N.NCCCCN.O=C([O-])CC(=O)[O-].O=C([O-])CC(=O)[O-].[Pt+4].[Pt+4] in this test? label 0

----------
# System: NCI-H522 lung
# PROTOCOL_SUMMARY: NCI tumour cell line growth inhibition, 48 h
I'd be grateful if you could share measured TGI for these entries.
Numbers only, in µM.

Cc1c(C(=O)CCl)c(=O)n(-c2ccccc2)n1C
3.23

Could you now consider this next compound?
Return value of TGI for input COc1ccc(-c2nc3sccn3c2/C=C/C(=O)c2cc(OC)c(OC)c(OC)c2)cc1OC , no commentary. 3.77

----------
# Test system: HCT-116 colon
# PROTOCOL_SUMMARY: NCI tumour cell line growth inhibition, 48 h
Assignment: determine reported TGI for the given compounds.

Recorded TGI, per entry:
CCCCCCCCCCCCOCCCCCCCCC/C=C/c1ccc2c(c1)OCCOCCOCCOCCO2
29.5 µM
CCOc1cc(NC(C)=O)ccc1C(=O)NN1C(=O)C(Cl)C1c1ccc(O)c(OC)c1 (stereo unspecified)
37.7 µM
CC(C)(C)C(=O)Nc1ccccc1Br
> 100 µM
O=C1CC2(CCCc3sccc32)C(=O)N1 (stereo unspecified)
> 100 µM
CCOC(=O)Nn1cnnc1Cc1ccccc1
> 100 µM
COc1c2c(c(OC)c3c(=O)cc(C/C(=N/NC(=O)C[n+]4ccccc4)C(=O)Nc4cc(C)ccc4C)oc13)OCO2
> 100 µM
Cc1cc2c(c(C=Nc3ccc(N(C)C)cc3)c1)OC1(C=C2)Oc2ccccc2C(=O)N1C (stereo unspecified)
21.6 µM
c1ccc2nc3c(nc2c1)sc1nc2ccccc2n13
> 100 µM

Please go through the list and note TGI for each compound.
1. COc1nc(N)nc2c1n(C)c[n+]2C
2. CCOC(=O)N(C)CCC1CC=CC(=O)C1c1cccc(OC)c1OC (stereo unspecified)
3. COc1cc2c3c(n(CCCO)c(=O)c2cc1OC)-c1cc2c(cc1C3=O)OCO2
4. Cc1nc2ccc(S(=O)(=O)Nc3ccccn3)cc2c(=O)n1NS(=O)(=O)c1ccccn1
5. COC(=O)/C=C1\SC(=Nc2ccc(C(F)(F)F)cc2)N(CCc2c[nH]c3ccccc23)C1=O
6. CCC(C)C1=C(O)[N+]2([O-])Oc3ccc(-c4c(O)c(O)c(-c5ccc(O)cc5)c(OC(C)=O)c4OC(C)=O)cc3OC2(C(C)CC)C(=O)N1O (stereo unspecified)
7. COc1ccc(OC)c2sc(N3C(=O)/C(=C/c4ccc(N(C)C)cc4)N=C3c3ccccc3)nc12

["> 100 µM", "27.6 µM", "> 38.6 µM", "> 100 µM", "2.47 µM", "> 50 µM", "> 100 µM"]

----------
# Test system: KM12 colon
# PROTOCOL_SUMMARY: NCI tumour cell line growth inhibition, 48 h
Kindly supply the reported TGI values for the records listed here.

Guide cases for TGI, answers given:
CC(C)/C(Cl)=N/OC(NC(=O)Nc1ccc(Cl)c(Cl)c1)(C(F)(F)F)C(F)(F)F
36.1 µM
COc1cc2c3c(n(CCCO)c(=O)c2cc1OC)-c1cc2c(cc1C3=O)OCO2
> 100 µM
Cc1ccc(/C(O)=C/c2nc3ccccc3nc2NC23CC4CC(CC(C4)C2)C3)cc1
> 10 µM
COc1ccc(C(=O)c2cc(OC)c(OC)c(OC)c2)cc1/C=C/C(=O)c1ccc(O)cc1
7.05 µM
CC12CC(=O)OC(Cc3ccccc31)O2 (stereo unspecified)
> 100 µM

// input: 3 compounds below; output: TGI for each
1. COc1cc2c(cc1C)NC(=O)/C2=C\c1cccnc1
2. COc1cccc(/C=C\c2cc(OC)c(OC)c(OC)c2)c1
3. CC(C)(C)[Si](C)(C)OC1[C@@H](O[Si](C)(C)C(C)(C)C)[C@@H](CNC(=O)NC(=O)NC(=O)CI)O[C@H]1n1cnc2c(NC(=O)Nc3ccccc3)ncnc21 (stereo partly specified)

1: 35.6 µM; 2: > 100 µM; 3: 3.78 µM

Kindly give each listed record's TGI.
1. C=C(CN1CCc2ccccc2C1)c1ccc(/C=C/C(=O)Nc2ccccc2N)cc1
2. CCCCCCC(O)C/C=C/CCCCCC/C(C(=O)OC)=C(/O)C(=O)OCC (stereo unspecified)
3. Clc1ccccc1-c1nn2c(CCCCCCCCc3nnc4sc(-c5ccccc5Cl)nn34)nnc2s1
4. COc1ccc2c(c1OC)C(Br)CCC(Br)(Br)C2=O (stereo unspecified)
5. CC(C)SC1SCC2C(=O)N(C)C3(CC3C)C(=O)OCC(NC(=O)c3nc4ccccc4cc3O)C(=O)NC(C)C(=O)N(C)C1C(=O)N(C)C1(CC1C)C(=O)OCC(NC(=O)c1nc3ccccc3cc1O)C(=O)NC(C)C(=O)N2C (stereo unspecified)
6. COc1ccc2c(CN3CCC(CO)CC3)cc3cc4c(cc3c2c1)OCO4

["> 100 µM", "> 100 µM", "> 100 µM", "32.2 µM", "< 0.0001 µM", "4.34 µM"]

Record TGI for all entries; do not skip any.
1. CN(C(=O)C12C3C4C1C1C2C3C41C(=O)O)C(C)(C)C (stereo unspecified)
2. COc1nc(N)nc2c1n(C)c[n+]2C
3. CCNCCNc1cc(-c2ccc(Cl)cc2)c(C#N)c2nc3ccccc3n12
4. CCOC(=O)C(C)c1nc2cc(F)c(N3CCOCC3)cc2[nH]c1=O (stereo unspecified)

1: > 100 µM; 2: > 100 µM; 3: 3.24 µM; 4: > 100 µM
